- Method: Plasma pharmacokinetics in pig (release of R-100 from R-107), LCMS
- Format: in vivo
- Stated Conditions: plasma, oral, capsule per os of neat R-107 88 mg/kg, 0.08 hrs post dose
Measured Property: concentration at 0.08 h (ng/mL)
Report the figure in ng/mL without appending any unit label.

For the compound shown here, CC(=O)ON1C(C)(C)CC(CO[N+](=O)[O-])C1(C)C (stereo not shown) [R-107] , give the reported concentration at 0.08 h. 1.32

---

- Method: Plasma pharmacokinetics in pig (release of R-100 from R-107), LCMS
- Type: in vivo
- Stated Conditions: plasma, IV neat R-107 88 mg/kg over 6 minutes, −0.08 hrs post dose
Measured Property: concentration at -0.08 h
Units required after the number.

For the compound shown here, CC(=O)ON1C(C)(C)CC(CO[N+](=O)[O-])C1(C)C (stereo not shown) [R-107] , give the reported concentration at -0.08 h. 0 ng/mL

---

- Method: Plasma pharmacokinetics in pig (release of R-100 from R-107), LCMS
- Format: in vivo
- Stated Conditions: plasma, IV neat R-107 88 mg/kg over 6 minutes, 0.08 hrs post dose
Measured Property: concentration at 0.08 h (ng/mL)
Report the figure in ng/mL without appending any unit label.

For the molecule shown here, CC(=O)ON1C(C)(C)CC(CO[N+](=O)[O-])C1(C)C (stereo not shown) , give the reported concentration at 0.08 h. 5240

---

- Method: Plasma pharmacokinetics in sheep (release of R-100 from R-107), LCMS
- Format: in vivo
- Stated Conditions: plasma, IV neat R-107 25 mg/kg over 10 minutes, 0.5 hrs post dose
Measured Property: concentration at 0.5 h (ng/mL)
Report the figure in ng/mL without appending any unit label.

For the compound shown here, CC(=O)ON1C(C)(C)CC(CO[N+](=O)[O-])C1(C)C (stereo not shown) [R-107] , give the reported concentration at 0.5 h. 200

---

- Method: Plasma pharmacokinetics in pig (release of R-100 from R-107), LCMS
- Format: in vivo
- Stated Conditions: plasma, oral, capsule per os of neat R-107 88 mg/kg, 2 hrs post dose
Measured Property: concentration at 2 h (ng/mL)
Report the figure in ng/mL without appending any unit label.

For the compound shown here, CC(=O)ON1C(C)(C)CC(CO[N+](=O)[O-])C1(C)C (stereo not shown) , give the reported concentration at 2 h. 0.222

These entries and their values trace back to patent US9604932B2.
